Hello, the source for this data is a collection of fitness landscapes (doi:10.1126/science.1257360), in case you need it.

The variants listed here are annotated with their enrichment ratio.
B1: PhoQ; a variant is named by its letters at X, in order, P23837 (parent)
chain: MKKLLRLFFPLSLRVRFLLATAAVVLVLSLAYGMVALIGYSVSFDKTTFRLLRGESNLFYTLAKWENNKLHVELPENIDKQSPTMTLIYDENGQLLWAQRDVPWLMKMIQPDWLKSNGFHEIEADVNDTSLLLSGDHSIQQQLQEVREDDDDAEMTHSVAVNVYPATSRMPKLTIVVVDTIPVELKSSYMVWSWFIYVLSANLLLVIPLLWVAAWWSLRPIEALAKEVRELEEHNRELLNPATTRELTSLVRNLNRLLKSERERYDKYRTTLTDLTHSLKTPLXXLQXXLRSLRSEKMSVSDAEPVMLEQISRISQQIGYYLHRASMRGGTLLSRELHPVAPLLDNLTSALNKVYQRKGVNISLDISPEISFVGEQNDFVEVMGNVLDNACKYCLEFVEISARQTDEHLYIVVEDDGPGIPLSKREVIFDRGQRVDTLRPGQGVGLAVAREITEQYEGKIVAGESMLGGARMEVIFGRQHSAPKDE

Variants of: B1
Test: enrichment ratio after two sorts for PhoP signalling (ratio (wild type AVST 3.29)); higher = more functional
Conditions: with PhoP (E. coli)
Whole data set: some 140,000 sequences, median “enrichment ratio after two sorts for PhoP signalling” near 0, cut for the highest 2% near 11. The sample as a whole holds a higher share of the highest values than the screen did.
readout-label: enrichment ratio

- TRRW: ≤ 0.25
- SPCM: ≤ 0.25
- NKIG: ≤ 0.25
- SVCE: 2.84
- YFNP: ≤ 0.25
- FYWY: ≤ 0.25
- EVLG: ≤ 0.25
- FDCM: ≤ 0.25
- MYMW: ≤ 0.25
- SVCM: 14.2
- MTCM: 12.2
- MHCM: ≤ 0.25
- QRYD: ≤ 0.25
- SDCM: 17.2
- SECM: 38.2
- SQLL: 12.5
- MTCK: ≤ 0.25
- KGPY: ≤ 0.25
- ECQN: ≤ 0.25
- SVCK: 9.8
- IRNP: ≤ 0.25
- IEMM: ≤ 0.25
